tested on: Vibrio campbellii BAA 1119 (AI-2); test: microbe, parasite or virus in culture; assay type: cell-based; conditions: Vibrio campbellii, BAA1119, 16 h, read-out: EC50 (concentration that halved the communication)
Collected EC50 values appear next to each entry.

{"MOLECULE": "COc1cc([C@@H]2Oc3c(O)cc(-c4oc5c(Br)c(O)cc(O)c5c(=O)c4O)cc3[C@H]2CO)ccc1O [compound 18, 8-Bromo-2,3-dehydrosilychristin A]", "EC50": "10.5 µM"}
{"MOLECULE": "COc1cc([C@@H]2Oc3cc([C@H]4Oc5c(Br)c(O)c(Br)c(O)c5C(=O)[C@@H]4O)ccc3O[C@H]2CO)cc(Br)c1O [compound 22, 6,8,21-tribromosilybin B]", "EC50": "12 µM"}

// moving on: another record for EC50
Problem: Query (molecule): COc1cc([C@@H]2Oc3c(O)cc([C@H]4Oc5c(Br)c(O)c(Br)c(O)c5C(=O)[C@@H]4O)cc3[C@H]2CO)ccc1O [compound 15, 6,8-Dibromosilychristin A] ; field requested: EC50
Result: > 200 µM

====

As shown below, each of these compounds has a reported SI (selectivity index) value.
test system: doxorubicin-resistant human ovarian carcinoma (HOC/DOX); test: Cytotoxicity (resazurin assay, 72 h); type: cell-based; conditions: ratio IC50 for HDF / IC50 for HOC/DOX

// known answers, use as guide
{"COMPOUND": "COc1cc([C@@H]2Oc3c(O)cc([C@H]4Oc5c(Br)c(O)c(Br)c(O)c5C(=O)[C@@H]4O)cc3[C@H]2CO)ccc1O [compound 15, 6,8-Dibromosilychristin A]", "ENDPOINT NAME": "SI (selectivity index)", "ASSAY RESULT": 0.71}
{"COMPOUND": "COc1cc(C2Oc3cc(-c4oc5cc(O)cc(O)c5c(=O)c4O)ccc3OC2CO)ccc1O (stereo not drawn) [compound 4, 2,3-dehydrosilybin AB, reference compound]", "ENDPOINT NAME": "SI (selectivity index)", "ASSAY RESULT": 0.71}
{"COMPOUND": "O=C1c2c(cc(O)c(Br)c2O)O[C@H](c2ccc(O)c(O)c2)[C@H]1O [compound 7, 6-Bromotaxifolin]", "ENDPOINT NAME": "SI (selectivity index)", "ASSAY RESULT": 0.35}
{"COMPOUND": "COc1cc([C@@H]2Oc3cc([C@H]4Oc5cc(O)c(Cl)c(O)c5C(=O)[C@@H]4O)ccc3O[C@H]2CO)ccc1O [compound 28, 6-Chlorosilybin B]", "ENDPOINT NAME": "SI (selectivity index)", "ASSAY RESULT": 0.54}
{"COMPOUND": "COc1cc([C@@H]2Oc3cc([C@H]4Oc5c(Br)c(O)c(Br)c(O)c5C(=O)[C@@H]4O)ccc3O[C@H]2CO)ccc1O [compound 14, 6,8-dibromosilybin B]", "ENDPOINT NAME": "SI (selectivity index)", "ASSAY RESULT": 0.55}

Please look at the following compound next.
Problem: Hi! What's the reported SI (selectivity index) for COc1cc([C@@H]2Oc3c(O)cc(-c4oc5cc(O)cc(O)c5c(=O)c4O)cc3[C@H]2CO)ccc1O [compound 6, 2,3-dehydrosilychristin A, reference compound] on doxorubicin-resistant human ovarian carcinoma (HOC/DOX)?
Result: 0.58

====

system: Vibrio campbellii BAA 1119 (AI-2); test: Viability of the quorum-sensing reporter culture (resazurin assay), AI-2 strain; assay type: cell-based; conditions: BAA1119, V. campbellii BAA 1119, resazurin assay, read-out: IC50 (concentration that halved the viability)
ENDPOINT NAME: pIC50
Scale: negative log10 of molar concentration, which is what pIC50 denotes.

Examples with answers:
{"COMPOUND": "O=c1c(O)c(-c2ccc(O)c(O)c2)oc2c(Br)c(O)cc(O)c12", "pIC50": 5.96}
{"COMPOUND": "COc1cc([C@@H]2Oc3cc([C@H]4Oc5cc(O)c(Br)c(O)c5C(=O)[C@@H]4O)ccc3O[C@H]2CO)ccc1O", "pIC50": 4.28}
{"COMPOUND": "COc1cc([C@H]2Oc3cc([C@H]4Oc5cc(O)cc(O)c5C(=O)[C@@H]4O)ccc3O[C@@H]2CO)ccc1O [3a, silybin A, reference compound]", "pIC50": 3.92}
{"COMPOUND": "COc1cc([C@@H]2Oc3c(O)cc(-c4oc5cc(O)cc(O)c5c(=O)c4O)cc3[C@H]2CO)ccc1O [compound 6, 2,3-dehydrosilychristin A, reference compound]", "pIC50": 4.96}
{"COMPOUND": "COc1cc(C2Oc3cc(-c4oc5c(Br)c(O)cc(O)c5c(=O)c4O)ccc3OC2CO)ccc1O (stereo not drawn) [compound 16, 8-bromo-2,3-dehydrosilybin AB]", "pIC50": 4.06}

Problem: I am curious: what pIC50 value has been reported for O=c1c(O)c(-c2ccc(O)c(O)c2)oc2cc(O)cc(O)c12 [compound 2, quercetin, reference compound] ?
Result: 4.97

Problem: What pIC50 value was documented for this compound, COc1cc(C2Oc3cc(-c4oc5cc(O)cc(O)c5c(=O)c4O)ccc3OC2CO)ccc1O (stereo not drawn) [compound 4, 2,3-dehydrosilybin AB, reference compound] ?
Result: 4.60

Problem: State the recorded pIC50 for this entry: COc1cc([C@H]2Oc3cc([C@H]4Oc5cc(O)c(Br)c(O)c5C(=O)[C@@H]4O)ccc3O[C@@H]2CO)ccc1O
Result: 4.29

Problem: Any idea what pIC50 was measured for COc1cc([C@@H]2Oc3cc([C@H]4Oc5c(Br)c(O)c(Br)c(O)c5C(=O)[C@@H]4O)ccc3O[C@H]2CO)cc(Br)c1O ?
Result: 4.46

====

system: doxorubicin-resistant human ovarian carcinoma (HOC/DOX); experiment: Cytotoxicity (resazurin assay, 72 h); type: cell-based; details: ratio IC50 for HDF / IC50 for HOC/DOX
SI (selectivity index) by entry:
Reply with just the number.

Solved cases (3 shown):
{"COMPOUND": "COc1cc([C@@H]2Oc3cc([C@H]4Oc5c(Br)c(O)c(Br)c(O)c5C(=O)[C@@H]4O)ccc3O[C@H]2CO)cc(Br)c1O [compound 22, 6,8,21-tribromosilybin B]", "TARGET DESC": "doxorubicin-resistant human ovarian carcinoma (HOC/DOX)", "SI (selectivity index)": 0.47}
{"COMPOUND": "COc1cc([C@@H]2Oc3cc([C@H]4Oc5cc(O)cc(O)c5C(=O)[C@@H]4O)ccc3O[C@H]2CO)ccc1O [3b, silybin B, reference compound]", "TARGET DESC": "doxorubicin-resistant human ovarian carcinoma (HOC/DOX)", "SI (selectivity index)": 0.41}
{"COMPOUND": "COc1cc([C@@H]2Oc3c(O)cc(-c4oc5c(Br)c(O)cc(O)c5c(=O)c4O)cc3[C@H]2CO)ccc1O [compound 18, 8-Bromo-2,3-dehydrosilychristin A]", "TARGET DESC": "doxorubicin-resistant human ovarian carcinoma (HOC/DOX)", "SI (selectivity index)": 0.32}

The record that follows has no SI (selectivity index) shown yet.
Problem: Consider the compound shown here: COc1cc(C2Oc3cc(-c4oc5c(Br)c(O)cc(O)c5c(=O)c4O)ccc3OC2CO)ccc1O (stereo not shown) [compound 16, 8-bromo-2,3-dehydrosilybin AB] What is its recorded SI (selectivity index)?
Result: 0.43

====

tested on: doxorubicin-resistant human ovarian carcinoma (HOC/DOX); test: Cytotoxicity (resazurin assay, 72 h); assay type: cell-based; conditions: ratio IC50 for HDF / IC50 for HOC/DOX
Listed here are compounds together with their documented SI (selectivity index).
// no unit string in output, number only

Example entries begin here.
{"COMPOUND": "O=C1c2c(O)c(Br)c(O)c(Br)c2O[C@H](c2ccc(O)c(O)c2)[C@H]1O", "TARGET DESC": "doxorubicin-resistant human ovarian carcinoma (HOC/DOX)", "SI (selectivity index)": 0.68}
{"COMPOUND": "COc1cc(C2Oc3cc(-c4oc5c(Br)c(O)c(Br)c(O)c5c(=O)c4O)ccc3OC2CO)ccc1O (stereo not drawn) [compound 17, 6,8-dibromo-2,3-dehydrosilybin AB]", "TARGET DESC": "doxorubicin-resistant human ovarian carcinoma (HOC/DOX)", "SI (selectivity index)": 0.46}

Consider now this further compound.
Problem: Which SI (selectivity index) value belongs to COc1cc([C@@H]2Oc3cc([C@H]4Oc5c(Br)c(O)cc(O)c5C(=O)[C@@H]4O)ccc3O[C@H]2CO)ccc1O ?
Result: 0.43

====

tested on: doxorubicin-resistant human ovarian carcinoma (HOC/DOX); test: Cytotoxicity (resazurin assay, 72 h); type: cell-based; conditions: ratio IC50 for HDF / IC50 for HOC/DOX
Answer -1 if SI (selectivity index) is under 0.5, and 1 if it is 0.5 or more.

Below, 5 compounds whose answers are already recorded.
{"COMPOUND": "COc1ccc2c(c1)c(CC(=O)O)c(C)n2C(=O)c1ccc(Cl)cc1 [Indomethacin, reference compound]", "CLASS LABEL": 1}
{"COMPOUND": "COc1cc([C@H]2Oc3cc([C@H]4Oc5c(Br)c(O)c(Br)c(O)c5C(=O)[C@@H]4O)ccc3O[C@@H]2CO)ccc1O [compound 12, 6,8-dibromosilybin A]", "CLASS LABEL": -1}
{"COMPOUND": "COc1cc([C@@H]2Oc3c(O)cc([C@H]4Oc5cc(O)cc(O)c5C(=O)[C@@H]4O)cc3[C@H]2CO)ccc1O [compound 5, silychristin A, reference compound]", "CLASS LABEL": 1}
{"COMPOUND": "O=c1c(O)c(-c2ccc(O)c(O)c2)oc2c(Br)c(O)cc(O)c12 [compound 9, 8-bromoquercetin]", "CLASS LABEL": 1}
{"COMPOUND": "COc1cc([C@H]2Oc3cc([C@H]4Oc5cc(O)cc(O)c5C(=O)[C@@H]4O)ccc3O[C@@H]2CO)ccc1O [3a, silybin A, reference compound]", "CLASS LABEL": -1}

Problem: # bool: SI (selectivity index) of O=c1c(O)c(-c2ccc(O)c(O)c2)oc2c(Br)c(O)c(Br)c(O)c12 [compound 10, 6,8-dibromoquercetin] >= 0.5
Result: 1

Problem: Is reported SI (selectivity index) greater than or equal to 0.5 here: COc1cc([C@@H]2Oc3cc([C@H]4Oc5cc(O)c(Br)c(O)c5C(=O)[C@@H]4O)ccc3O[C@H]2CO)ccc1O [compound 13, 6-Bromosilybin B]
Result: -1

Problem: // inclusive: SI (selectivity index) at least 0.5? input: O=c1c(O)c(-c2ccc(O)c(O)c2)oc2cc(O)cc(O)c12 [compound 2, quercetin, reference compound]
Result: -1

Problem: Does the reported SI (selectivity index) for COc1cc([C@H]2Oc3cc([C@H]4Oc5c(Br)c(O)cc(O)c5C(=O)[C@@H]4O)ccc3O[C@@H]2CO)ccc1O [compound 19, 8-bromosilybin A] fall at or above the 0.5 mark?
Result: -1

Problem: Can COc1cc([C@H]2Oc3cc([C@H]4Oc5c(Br)c(O)c(Br)c(O)c5C(=O)[C@@H]4O)ccc3O[C@@H]2CO)cc(Br)c1O [compound 21, 6,8,21-tribromosilybin A] be said to have SI (selectivity index) at or above 0.5?
Result: -1
